biological target: EPHB1 (UniProt P54762); experiment: phosphorylation enrichment, bacterial display (enrichment ratio); higher = better substrate or ligand; peptides without Tyr show the background;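 note: 11-residue human phosphosite peptides and single-mutation variants displayed on the E. coli surface, counted by deep sequencing, each peptide's frequency after selection divided by its frequency in the unselected input library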;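 note: frequency after pTyr selection over input frequency; kinase dosed for 20-30% of maximal phosphorylation in three min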
Sequence (P54762 whole entry, looked up): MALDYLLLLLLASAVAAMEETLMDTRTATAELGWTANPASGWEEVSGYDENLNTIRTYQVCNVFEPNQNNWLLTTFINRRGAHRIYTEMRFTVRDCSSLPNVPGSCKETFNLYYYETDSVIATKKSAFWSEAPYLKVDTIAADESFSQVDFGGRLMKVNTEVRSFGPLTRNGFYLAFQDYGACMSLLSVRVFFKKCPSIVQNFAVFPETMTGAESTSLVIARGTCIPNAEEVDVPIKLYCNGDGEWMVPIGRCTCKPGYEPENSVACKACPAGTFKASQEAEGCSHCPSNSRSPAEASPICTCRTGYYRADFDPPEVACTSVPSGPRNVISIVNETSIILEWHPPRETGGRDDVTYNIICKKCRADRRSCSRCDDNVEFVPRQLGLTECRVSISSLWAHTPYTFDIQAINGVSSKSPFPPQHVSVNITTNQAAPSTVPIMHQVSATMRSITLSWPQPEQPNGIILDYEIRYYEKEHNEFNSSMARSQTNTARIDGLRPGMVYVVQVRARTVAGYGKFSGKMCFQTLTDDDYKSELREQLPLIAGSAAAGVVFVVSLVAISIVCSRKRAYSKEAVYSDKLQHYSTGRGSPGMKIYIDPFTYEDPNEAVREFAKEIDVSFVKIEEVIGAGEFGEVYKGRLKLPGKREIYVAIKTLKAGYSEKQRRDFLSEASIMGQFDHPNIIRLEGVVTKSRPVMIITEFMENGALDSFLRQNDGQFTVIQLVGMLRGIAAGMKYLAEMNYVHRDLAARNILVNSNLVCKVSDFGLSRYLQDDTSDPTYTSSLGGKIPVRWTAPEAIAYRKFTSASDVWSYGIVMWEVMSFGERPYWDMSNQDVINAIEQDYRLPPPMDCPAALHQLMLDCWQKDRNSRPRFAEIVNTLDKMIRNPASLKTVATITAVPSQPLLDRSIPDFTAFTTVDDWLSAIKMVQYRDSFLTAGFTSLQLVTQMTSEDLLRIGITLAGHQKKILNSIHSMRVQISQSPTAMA
// reported phosphorylation enrichment per item
Write the value as a bare number.

See these solved cases before continuing.
ALWFIYSHTRS [ENG_Y614_YF] | 0.597
AIYRRYSKFFD [SH3PXD2B_Y45] | 0.603
TTPGPYRSIYF [MPG_Y71] | 0.268
LTERGYSFTTK [ACTG1_Y198_T203K] | 1.8
GTCGGYCSVLG [RAB18_Y202_A198T] | 0.344
PDGVEYLKNNP [GRIN3A_Y831_D835N] | 0.527

// field: phosphorylation enrichment; key: TPGPNYRPGFN [USH2A_Y463_YF] ; value = 0.531
